# System: human Factor 7 mRNA
# experiment: Dose-dependent antisense inhibition of human Factor 7 in HepB3 cells, transfection with electroporation
# Assay type: cell-based
# condition.parameters: 50 μM, 16 hours (Example 8, Table 16)
In the oligonucleotide strings, read from the 5' end, every base follows the letter of its sugar. An asterisk marks phosphorothioate; unmarked linkages are phosphodiester. Other units and linkages are bracketed, terminal groups are in braces. A string of capitals states the bases alone. e = 2'-O-(2-methoxyethyl) (MOE); [5mC] = 5-methylcytosine; d = 2'-deoxy (DNA)
endpoint: percent inhibition of Factor 7 mRNA, relative to untreated control cells (%)
Express it in %; write the number only.

Before answering, review these 2 worked examples.
substance | experimental.system | quantitative.readout
422292 (antisense eG*eT*dT*d[5mC]*dT*dG*d[5mC]*dA*dG*dG*dA*dG*d[5mC]*dG*dG*e[5mC]*e[5mC]*eT*eA*eA) [compound 422292] | human Factor 7 mRNA | 82
422130 (antisense eG*e[5mC]*e[5mC]*eT*eG*dA*dG*dG*d[5mC]*d[5mC]*dA*dG*d[5mC]*dA*dG*eA*eT*e[5mC]*eA*e[5mC]) [compound 422130] | human Factor 7 mRNA | 82

QUERY: Look up and report measured percent inhibition of Factor 7 mRNA, relative to untreated control cells for this entry: 422150 (antisense eG*e[5mC]*eA*dT*dG*dG*dT*dG*dA*dT*dG*d[5mC]*dT*dT*d[5mC]*dT*dG*eA*eA*eT) [compound 422150]
RESULT: 77

* * *

# System: human Factor 7 mRNA
# experiment: Antisense inhibition of human Factor 7 mRNA in HepB3 cells, lipofectin, 50 nM, real-time RT-PCR
# Format: cell-based
# condition.parameters: Example 1; HepB3 cells, lipofectin, 50 nM, ~24 h, relative to untreated control cells
In the oligonucleotide strings, read from the 5' end, every base follows the letter of its sugar. An asterisk marks phosphorothioate; unmarked linkages are phosphodiester. Other units and linkages are bracketed, terminal groups are in braces. A string of capitals states the bases alone. e = 2'-O-(2-methoxyethyl) (MOE); [5mC] = 5-methylcytosine; d = 2'-deoxy (DNA)
endpoint: % Inhibition (human Factor 7 mRNA) (%)
Express it in %; write the number only.

Before answering, review these 2 worked examples.
substance | units | % Inhibition (human Factor 7 mRNA)
407642 (antisense e[5mC]*eA*eG*e[5mC]*eA*dG*d[5mC]*d[5mC]*dT*dG*dA*dG*dG*d[5mC]*d[5mC]*eA*eG*e[5mC]*eA*eG) [compound 407642] | % | 78
407659 (antisense eG*eA*eT*eG*eG*d[5mC]*dA*dT*d[5mC]*dG*dA*dG*dT*d[5mC]*d[5mC]*eA*e[5mC]*eT*e[5mC]*eT) [compound 407659] | % | 55

Next substance, % Inhibition (human Factor 7 mRNA) to be filled in.
QUERY: Look up and report measured % Inhibition (human Factor 7 mRNA) for this entry: 407631 (antisense eG*eG*eG*e[5mC]*eA*d[5mC]*d[5mC]*dA*d[5mC]*dA*dT*dG*dG*dT*d[5mC]*eA*eG*eT*eG*eA) [compound 407631]
RESULT: 66

* * *

# Test system: human Factor 7 mRNA
# experiment: Antisense inhibition of human Factor 7 mRNA in HepB3 cells, lipofectin, 50 nM, real-time RT-PCR
# Assay type: cell-based
# condition.parameters: Example 6 microwalk, nucleobases 15098 to 15122 of SEQ ID NO: 1; HepB3, lipofectin, 50 nM, ~24 h
In the oligonucleotide strings, read from the 5' end, every base follows the letter of its sugar. An asterisk marks phosphorothioate; unmarked linkages are phosphodiester. Other units and linkages are bracketed, terminal groups are in braces. A string of capitals states the bases alone. e = 2'-O-(2-methoxyethyl) (MOE); [5mC] = 5-methylcytosine; d = 2'-deoxy (DNA)
Please mark Yes if the recorded % Inhibition (human Factor 7 mRNA) is equal to or greater than 50%, and No if it falls below.

QUERY: Evaluate 416479 (antisense eG*eA*e[5mC]*eA*eG*d[5mC]*dA*d[5mC]*dA*d[5mC]*dA*dT*dG*dG*dA*eG*eT*e[5mC]*eA*eG) [compound 416479] : % Inhibition (human Factor 7 mRNA) at minimum 50%?
RESULT: No

* * *

# Tested on: human Factor 7 mRNA
# experiment: Antisense inhibition of human Factor 7 mRNA in HepB3 cells, lipofectin, 50 nM, real-time RT-PCR
# Type: cell-based
# condition.parameters: HepB3 cells; gapmers targeted to nucleobases 11830 to 11869 of SEQ ID NO: 1 (Table 9)
In the oligonucleotide strings, read from the 5' end, every base follows the letter of its sugar. An asterisk marks phosphorothioate; unmarked linkages are phosphodiester. Other units and linkages are bracketed, terminal groups are in braces. A string of capitals states the bases alone. e = 2'-O-(2-methoxyethyl) (MOE); [5mC] = 5-methylcytosine; d = 2'-deoxy (DNA)
Please mark Fulfilled if the recorded % Inhibition of human Factor 7 mRNA levels is equal to or greater than 40%, and Not fulfilled if it falls below.

Reference set (5 entries):
substance | answer.label
422239 (antisense eG*eA*d[5mC]*dA*dA*dT*dG*dG*dT*d[5mC]*dA*dG*dG*dG*d[5mC]*eT*eG*eG*eT*eT) [compound 422239] | Fulfilled
422094 (antisense e[5mC]*eA*eA*eT*eG*dG*dT*d[5mC]*dA*dG*dG*dG*d[5mC]*dT*dG*eG*eT*eT*eT*eT) [compound 422094] | Fulfilled
422168 (antisense eT*eG*eA*dG*dG*dA*dG*dA*d[5mC]*dA*dA*dT*dG*dG*dT*d[5mC]*dA*eG*eG*eG) [compound 422168] | Not fulfilled
422247 (antisense eG*e[5mC]*dT*dG*dA*dG*dG*dA*dG*dA*d[5mC]*dA*dA*dT*dG*eG*eT*e[5mC]*eA*eG) [compound 422247] | Not fulfilled
422157 (antisense eT*eG*eG*dT*d[5mC]*dA*dG*dG*dG*d[5mC]*dT*dG*dG*dT*dT*dT*dT*eG*eG*eA) [compound 422157] | Fulfilled

QUERY: Evaluate 422099 (antisense eA*eG*eG*eA*eG*dA*d[5mC]*dA*dA*dT*dG*dG*dT*d[5mC]*dA*eG*eG*eG*e[5mC]*eT) [compound 422099] : % Inhibition of human Factor 7 mRNA levels at minimum 40%?
RESULT: Fulfilled

QUERY: Evaluate 422100 (antisense eG*eA*eG*eG*eA*dG*dA*d[5mC]*dA*dA*dT*dG*dG*dT*d[5mC]*eA*eG*eG*eG*e[5mC]) [compound 422100] : % Inhibition of human Factor 7 mRNA levels at minimum 40%?
RESULT: Fulfilled

QUERY: Evaluate 422248 (antisense eG*eG*d[5mC]*dT*dG*dA*dG*dG*dA*dG*dA*d[5mC]*dA*dA*dT*eG*eG*eT*e[5mC]*eA) [compound 422248] : % Inhibition of human Factor 7 mRNA levels at minimum 40%?
RESULT: Fulfilled

QUERY: Evaluate 422107 (antisense eG*e[5mC]*eT*eG*eG*d[5mC]*dT*dG*dA*dG*dG*dA*dG*dA*d[5mC]*eA*eA*eT*eG*eG) [compound 422107] : % Inhibition of human Factor 7 mRNA levels at minimum 40%?
RESULT: Not fulfilled

QUERY: Evaluate 422241 (antisense eG*eA*dG*dA*d[5mC]*dA*dA*dT*dG*dG*dT*d[5mC]*dA*dG*dG*eG*e[5mC]*eT*eG*eG) [compound 422241] : % Inhibition of human Factor 7 mRNA levels at minimum 40%?
RESULT: Fulfilled

QUERY: Evaluate 422170 (antisense eG*e[5mC]*eT*dG*dA*dG*dG*dA*dG*dA*d[5mC]*dA*dA*dT*dG*dG*dT*e[5mC]*eA*eG) [compound 422170] : % Inhibition of human Factor 7 mRNA levels at minimum 40%?
RESULT: Not fulfilled

QUERY: Evaluate 422251 (antisense eG*e[5mC]*dT*dG*dG*d[5mC]*dT*dG*dA*dG*dG*dA*dG*dA*d[5mC]*eA*eA*eT*eG*eG) [compound 422251] : % Inhibition of human Factor 7 mRNA levels at minimum 40%?
RESULT: Not fulfilled

* * *

# Tested on: human Factor 7 mRNA
# experiment: Dose-dependent antisense inhibition of human Factor 7 in HepB3 cells, transfection with lipofectin
# Format: cell-based
# condition.parameters: 50 nM, lipofectin, HepB3 cells, 16 hours
In the oligonucleotide strings, read from the 5' end, every base follows the letter of its sugar. An asterisk marks phosphorothioate; unmarked linkages are phosphodiester. Other units and linkages are bracketed, terminal groups are in braces. A string of capitals states the bases alone. e = 2'-O-(2-methoxyethyl) (MOE); [5mC] = 5-methylcytosine; d = 2'-deoxy (DNA)
Listed substances paired with reported percent inhibition of Factor 7 mRNA, relative to untreated control cells

Before answering, review these 3 worked examples.
substance | result
422294 (antisense eG*eA*dG*dT*dT*d[5mC]*dT*dG*d[5mC]*dA*dG*dG*dA*dG*d[5mC]*eG*eG*e[5mC]*e[5mC]*eT) [compound 422294] | 77%
422296 (antisense e[5mC]*e[5mC]*dG*dA*dG*dT*dT*d[5mC]*dT*dG*d[5mC]*dA*dG*dG*dA*eG*e[5mC]*eG*eG*e[5mC]) [compound 422296] | 78%
422183 (antisense eG*e[5mC]*eG*d[5mC]*d[5mC]*dA*d[5mC]*d[5mC]*d[5mC]*dG*d[5mC]*d[5mC]*dG*dG*d[5mC]*dT*d[5mC]*eT*eG*e[5mC]) [compound 422183] | 84%

QUERY: Please tell me the measured percent inhibition of Factor 7 mRNA, relative to untreated control cells for 422229 (antisense eA*eT*dG*d[5mC]*dA*dT*dG*dG*dT*dG*dA*dT*dG*d[5mC]*dT*eT*e[5mC]*eT*eG*eA) [compound 422229] ; system: human Factor 7 mRNA.
RESULT: 86%

QUERY: Please tell me the measured percent inhibition of Factor 7 mRNA, relative to untreated control cells for 422087 (antisense e[5mC]*eA*eT*eG*e[5mC]*dA*dT*dG*dG*dT*dG*dA*dT*dG*d[5mC]*eT*eT*e[5mC]*eT*eG) [compound 422087] ; system: human Factor 7 mRNA.
RESULT: 83%

QUERY: Please tell me the measured percent inhibition of Factor 7 mRNA, relative to untreated control cells for 422215 (antisense eG*eT*eT*d[5mC]*dT*dG*d[5mC]*dA*dG*dG*dA*dG*d[5mC]*dG*dG*d[5mC]*d[5mC]*eT*eA*eA) [compound 422215] ; system: human Factor 7 mRNA.
RESULT: 84%

QUERY: Please tell me the measured percent inhibition of Factor 7 mRNA, relative to untreated control cells for 422140 (antisense eG*eT*eT*e[5mC]*eT*dG*d[5mC]*dA*dG*dG*dA*dG*d[5mC]*dG*dG*e[5mC]*e[5mC]*eT*eA*eA) [compound 422140] ; system: human Factor 7 mRNA.
RESULT: 74%

Reference source for all entries: patent US20120214862A1
